Test system: LM3 cells
MEASUREMENT NOTES: MTT antiproliferative assay, LM3
Format: cell-based
PARTICULARS: exposure 72 h, read-out: 50% inhibitory concentration (IC50) LM3
RESULT TYPE: IC50

Form field IC50, entry `C(=N\N=C1/NCc2ccccc2-c2[nH]c3ccccc3c21)/c1ccccn1` : 1400 nM

###

Tested on: MDA-MB-231 cells
MEASUREMENT NOTES: MTT antiproliferative assay, MDA-MB-231
Format: cell-based, human
PARTICULARS: exposure 72 h, read-out: 50% inhibitory concentration (IC50) MDA-MB-231
RESULT TYPE: IC50
Please state the value followed by its unit.

The recorded IC50 for C(=N\N=C1/NCc2ccccc2-c2[nH]c3ccccc3c21)/c1ccccn1 [HL^1] is 1500 nM
